molecular target: HLA-A*02 (human); assay: UV peptide-exchange ELISA, yield grade
Recorded Metric: peptide exchange yield

Some solved entries appear below for comparison.
| Binder | Assay Result |
| --- | --- |
| SQFPLPLAV [SQFPLPLAV (SEQ ID NO: 46)] | 20 to 49% |
| KLQNIMMLL [KLQNIMMLL (SEQ ID NO: 230)] | 20 to 49% |
| ALLERGELFV [ALLERGELFV (SEQ ID NO: 47)] | 50 to 75% |

I am curious: what peptide exchange yield value has been reported for HLSTIIHEA [HLSTIIHEA (SEQ ID NO: 135)] ? 50 to 75%

I am curious: what peptide exchange yield value has been reported for KIIDFLSAL [KIIDFLSAL (SEQ ID NO: 235)] ? 50 to 75%

I am curious: what peptide exchange yield value has been reported for AIQDEIRSV [AIQDEIRSV (SEQ ID NO: 21)] ? 50 to 75%

I am curious: what peptide exchange yield value has been reported for SLLHFTENL [SLLHFTENL (SEQ ID NO: 255)] ? 50 to 75%

I am curious: what peptide exchange yield value has been reported for SLFETAWEA [SLFETAWEA (SEQ ID NO: 44)] ? 50 to 75%

I am curious: what peptide exchange yield value has been reported for LLNPVVEFV [LLNPVVEFV (SEQ ID NO: 155)] ? 50 to 75%

I am curious: what peptide exchange yield value has been reported for ILLDLTDNRL [ILLDLTDNRL (SEQ ID NO: 18)] ? 50 to 75%

I am curious: what peptide exchange yield value has been reported for AMIEEVFEA [AMIEEVFEA (SEQ ID NO: 30)] ? 20 to 49%
